Assay: Dynamic Vapor Sorption (DVS), moisture sorption/desorption
Assay type: physicochemical
Details: DVS, 5% to 98% RH; data not shown
experimental readout: hygroscopicity suggested by vapor sorption data

compound	experimental result
Br.C[C@@H](Oc1ccc2[nH]nc(-c3ccc(N4CC5(C4)CN(S(C)(=O)=O)C5)nc3)c2c1)c1c(Cl)cncc1Cl [Form II of Compound 12]	moderately hygroscopic
C[C@@H](Oc1ccc2[nH]nc(-c3ccc(N4CC5(C4)CN(S(C)(=O)=O)C5)nc3)c2c1)c1c(Cl)cncc1Cl.Cl [Form II of Compound 1]	moderately hygroscopic
